B1: ZNF511 (parent)
chain: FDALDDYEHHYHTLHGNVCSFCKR

variants of: B1; assay: protein stability index of a GFP-peptide fusion (GPS, HEK-293T) (PSI 1-6); higher = more stable; details: c terminus: a fixed tail appended;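 also: lentivirally expressed fusions sorted by FACS into six bins by GFP to DsRed ratio, PSI derived from sequencing read proportions per bin multiplied by bin number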
Endpoint Name: protein stability index

variant_id=D6V endpoint_name="protein stability index" observed_value=2.98
variant_id=H10S endpoint_name="protein stability index" observed_value=3.06
variant_id=C19Q endpoint_name="protein stability index" observed_value=2.92

Value source: the supplement of paper PMC10567573
